TEST SYSTEM: Induced myeloid leukemia cell differentiation protein Mcl-1 (Homo sapiens)
Sequence (Q07820 whole entry): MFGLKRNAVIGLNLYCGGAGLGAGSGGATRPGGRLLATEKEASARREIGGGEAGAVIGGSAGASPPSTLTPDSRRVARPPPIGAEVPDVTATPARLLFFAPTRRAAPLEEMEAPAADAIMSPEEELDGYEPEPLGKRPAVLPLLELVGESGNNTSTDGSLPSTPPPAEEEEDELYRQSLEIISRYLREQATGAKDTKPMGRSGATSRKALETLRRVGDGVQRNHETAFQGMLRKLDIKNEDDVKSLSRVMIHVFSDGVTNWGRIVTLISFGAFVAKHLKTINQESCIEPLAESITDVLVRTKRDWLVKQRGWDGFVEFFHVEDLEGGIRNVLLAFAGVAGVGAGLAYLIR
Format: functional
Activity calls are given as the source filed them.
OBSERVATION TYPE: IC50

Kindly give each listed record's IC50.
1. COc1ccc(NC2=NC(=O)/C(=C\C=C\c3ccco3)S2)cc1
2. O=c1/c(=C/c2ccc(O)c([N+](=O)[O-])c2)sc2nc3ccccc3n12
3. CCOC(=O)c1c(NC(C)=O)sc2c(O)c(Br)cc(Br)c12

1. 3.02 µM (active)
2. 3.94 µM (active)
3. 4.76 µM (active)

So what does the record say about IC50 for CCC1(C(=O)OC)CCc2c(cc(OC)c3ccccc23)C1=O (centres undefined) ?
> 54 µM (not active)

* * *

TEST SYSTEM: DNA dC->dU-editing enzyme APOBEC-3G (Homo sapiens, UniProt Q9HC16)
Sequence (Q9HC16 whole entry): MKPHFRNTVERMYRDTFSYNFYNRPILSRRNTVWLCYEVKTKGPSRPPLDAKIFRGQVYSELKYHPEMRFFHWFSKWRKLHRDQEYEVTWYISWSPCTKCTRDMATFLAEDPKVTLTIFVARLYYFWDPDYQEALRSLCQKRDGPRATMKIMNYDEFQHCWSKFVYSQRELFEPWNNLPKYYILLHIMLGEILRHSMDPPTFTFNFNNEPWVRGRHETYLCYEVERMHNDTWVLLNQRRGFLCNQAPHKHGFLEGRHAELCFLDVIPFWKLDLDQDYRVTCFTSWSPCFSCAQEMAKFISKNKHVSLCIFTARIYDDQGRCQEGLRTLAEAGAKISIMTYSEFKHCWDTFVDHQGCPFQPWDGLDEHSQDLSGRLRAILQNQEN
RUN DESCRIPTION: inhibition of APOBEC3G ssDNA deamination – biochemical, fluorescence, single-stranded DNA substrate, SAR follow-up (AID 602136)
Assay type: functional
STATED CONDITIONS: read-out: IC50_Mean
Activity calls are given as the source filed them.
OBSERVATION TYPE: IC50

Cc1ccc(CN(C)C(=O)CSc2nnc(-c3ccc(F)cc3)n2C)o1 : > 99 µM (inactive)
CCCCN1CCc2cc(/C=C3\C(=O)NC(=S)N(C4CC4)C3=O)ccc21 : 68.2 µM (inactive)
COc1ccc(-c2nnc(SCC(=O)N(C)Cc3cccs3)[nH]2)cc1 : > 99 µM (inactive)

For the next question, use this compound.
// lookup IC50 for C[n+]1cccc(C(=O)Nc2ccccc2)c1
5.96 µM (active)

* * *

For each record, write down the corresponding IC50.
TEST SYSTEM: Rac GTPase-activating protein 1 (Homo sapiens)
Sequence (Q9H0H5 whole entry): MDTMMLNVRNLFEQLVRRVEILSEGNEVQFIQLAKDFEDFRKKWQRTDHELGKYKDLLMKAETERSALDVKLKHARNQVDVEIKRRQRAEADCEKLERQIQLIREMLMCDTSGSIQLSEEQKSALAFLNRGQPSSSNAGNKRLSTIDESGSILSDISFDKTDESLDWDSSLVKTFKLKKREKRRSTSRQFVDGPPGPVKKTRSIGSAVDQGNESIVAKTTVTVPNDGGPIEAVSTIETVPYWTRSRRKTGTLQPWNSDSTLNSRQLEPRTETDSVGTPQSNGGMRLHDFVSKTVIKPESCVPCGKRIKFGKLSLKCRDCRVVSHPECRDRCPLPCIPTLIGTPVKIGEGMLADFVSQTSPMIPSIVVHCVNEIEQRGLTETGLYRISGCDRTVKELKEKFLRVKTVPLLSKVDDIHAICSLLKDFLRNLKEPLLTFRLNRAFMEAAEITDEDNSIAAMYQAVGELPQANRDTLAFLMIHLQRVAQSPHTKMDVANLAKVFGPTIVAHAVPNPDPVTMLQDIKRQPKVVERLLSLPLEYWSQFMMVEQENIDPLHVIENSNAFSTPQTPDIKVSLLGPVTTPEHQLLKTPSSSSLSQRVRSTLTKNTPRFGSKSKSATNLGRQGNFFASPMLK
RUN DESCRIPTION: blockers of MgcRacGAP-driven Rac1 GTP hydrolysis – biochemical, ADP Hunter fluorescence, primary and confirmatory, confirmation (AID 624330)
Assay type: functional
Active and inactive are the calls of the source.

Below, 2 compounds whose answers are already recorded.
OCC1CCCN(C(=S)Nc2ccc(Nc3ccccc3)cc2)C1 (stereo not drawn) : 41.8 µM (active)
CCN(CC)S(=O)(=O)c1cccc(NC(=O)CNC2CCCCCC2)c1 : 185 µM (active)

Batch: IC50 for all items listed.
1. O=C(CN1CCN(c2ccc(O)cc2)CC1)NC(=O)NCc1ccco1
2. Clc1ccccc1CNCc1ccc2c(c1)OCO2
3. Cc1ccc2c(c1)[nH]c1c(N3CCN(Cc4ccccc4)CC3)ncnc12
4. Oc1ccc(Cl)cc1/N=C/c1sc2ccccc2c1Cl
5. Nc1ccc(N=Nc2ccc(N)cc2)cc1
6. Nc1ccc(Nc2ccccc2)c(Cl)c1

["52.6 µM (active)", "257 µM (active)", "47.8 µM (active)", "20.4 µM (active)", "22 µM (active)", "17.3 µM (active)"]

Hi, could you look up IC50 for each item in my list?
1. O=C(NCCNCC(O)COc1ccc(O)cc1)N1CCOCC1 (stereo not drawn)
2. O=c1c2ccccc2nc(/C=C/c2ccc(O)cc2)n1-c1ccccc1O

["118 µM (active)", "62.5 µM (active)"]

For every item below, please supply its IC50.
1. Cc1cc(-c2cc(C)c(N)c(C)c2)cc(C)c1N
2. O=c1c2ccccc2sn1-c1ccc(F)cc1
3. O=c1c(O)c(-c2ccc(O)cc2)oc2cc(O)cc(O)c12

1. 10.8 µM (active)
2. 39.3 µM (active)
3. 44.5 µM (active)
